Reference source: PubChem BioAssay AID2235

# TESTED_ON: Serine/threonine-protein phosphatase PP1-alpha catalytic subunit (Homo sapiens) (UniProt P62136)
# Sequence (P62136 whole entry, looked up): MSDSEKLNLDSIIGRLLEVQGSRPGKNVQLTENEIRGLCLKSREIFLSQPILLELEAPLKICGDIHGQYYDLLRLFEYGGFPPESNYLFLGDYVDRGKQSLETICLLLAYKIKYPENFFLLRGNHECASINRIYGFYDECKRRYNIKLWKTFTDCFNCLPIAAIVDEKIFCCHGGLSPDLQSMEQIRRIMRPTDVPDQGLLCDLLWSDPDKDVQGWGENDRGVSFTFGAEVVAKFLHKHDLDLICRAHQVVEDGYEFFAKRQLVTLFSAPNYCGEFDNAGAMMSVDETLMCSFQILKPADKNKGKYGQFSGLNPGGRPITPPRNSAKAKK
# ASSAY_REMARKS: inhibition of human PP1 catalytic subunit – biochemical, fluorescence, OMFP substrate, single point, counter-screen for PP5 inhibitor project, primary screen (AID 2235)
# ASSAY_CONDITIONS: purified PP1alpha, at 6.7 µM
The campaign covered roughly 320,000 compounds. About 2,800 (0.88%) were called active.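 The calls were made as follows: active = inhibition above the mean inhibition of all tested compounds plus 3 SD, computed separately for each screening campaign (cut at about 15% in these data); inactive = the rest.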 This excerpt belongs to a sample that is enriched for actives.
Respond only with the outcome that fits, drawn from active, inactive

Cc1cc(N2C(=O)C(O)=C(C(=O)c3ccc(C)o3)C2c2ccc(OCc3ccccc3)cc2)no1 (stereo not given)	active

Dear colleague, could you share the recorded outcome for CCn1cc(CN2CCCC(CNS(=O)(=O)Cc3ccccc3)C2)cn1 (stereo not given) when you have a moment?
inactive

Dear colleague, could you share the recorded outcome for CC(=O)Oc1ccccc1C1=NN(C(C)=O)C(c2ccccc2)C1 (stereo not given) when you have a moment?
inactive

Dear colleague, could you share the recorded outcome for O=C(CSc1nnnn1-c1ccc(O)cc1)N1N=C(c2ccc3ccccc3c2)CC1c1ccccc1 (stereo not given) when you have a moment?
inactive

Dear colleague, could you share the recorded outcome for Cc1cc(N2C(=O)C(=O)/C(=C(/O)c3ccccc3)C2c2cccc(Br)c2)no1 (stereo not given) when you have a moment?
inactive

Dear colleague, could you share the recorded outcome for COc1cc(C2C(C(=O)c3ccco3)=C(O)C(=O)N2c2cc(C)on2)ccc1OCc1ccccc1 (stereo not given) when you have a moment?
inactive

Dear colleague, could you share the recorded outcome for C=C(Br)Cn1c(CCCC)nc2ccccc21 when you have a moment?
inactive

Dear colleague, could you share the recorded outcome for O=C(c1ccccc1)N1N=C(c2ccccc2O)CC1c1ccc(Br)cc1 (stereo not given) when you have a moment?
inactive

Dear colleague, could you share the recorded outcome for COc1cc(C2C(C(=O)c3ccc(C)o3)=C(O)C(=O)N2CCc2ccccc2)ccc1O (stereo not given) when you have a moment?
active

Dear colleague, could you share the recorded outcome for COc1ccc(NC(=O)CSc2nnc(-c3ccccc3F)n2C2CC2)cc1S(N)(=O)=O when you have a moment?
inactive
